Would you kindly list EC50 for each of these molecules?
- system: NagR (Bifidobacterium longum, UniProt A0ACD7UQ49)
- Construct: full-length as described, N-terminal His tag, codon-optimized synthetic gene in in-house pET-49b(+), expressed in E. coli BL21(DE3), Ni-NTA purified; tag removal not mentioned
- Sequence (A0ACD7UQ49 36-409 limits assumed): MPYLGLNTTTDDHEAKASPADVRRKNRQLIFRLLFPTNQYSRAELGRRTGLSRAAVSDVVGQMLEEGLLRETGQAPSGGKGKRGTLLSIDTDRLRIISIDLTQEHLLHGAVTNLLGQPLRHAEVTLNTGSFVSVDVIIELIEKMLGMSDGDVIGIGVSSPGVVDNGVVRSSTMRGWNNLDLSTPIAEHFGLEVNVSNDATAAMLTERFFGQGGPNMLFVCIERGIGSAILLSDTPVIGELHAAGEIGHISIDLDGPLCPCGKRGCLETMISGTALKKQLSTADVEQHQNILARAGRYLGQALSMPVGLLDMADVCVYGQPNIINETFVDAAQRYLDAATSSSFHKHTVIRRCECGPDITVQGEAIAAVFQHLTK
- assay-procedure: EMSA, disruption of NagR-DNA complex
- conditions: 25 nM NagR, 1 nM IRD700-labelled hmoA operator probe; pH 7.5, 50 mM KCl, 5 mM MgCl2, room temperature; effector releasing DNA
Report the figure in µM without appending any unit label.

For "CC(=O)N[C@H]1[C@@H](OP(=O)(O)O)O[C@H](CO)[C@@H](O)[C@@H]1O" , what is its reported EC50? 490

Which value of EC50 has been reported for CC(=O)N[C@H]1C(O)O[C@H](CO)[C@@H](O)[C@@H]1O (some centres unmarked) in the records? 330
